- Target: human Protein Tyrosine Phosphatase Receptor Type B (PTPRB), PTPRB (gene 5787) (UniProt P23467)
- Sequence (P23467 whole entry, looked up): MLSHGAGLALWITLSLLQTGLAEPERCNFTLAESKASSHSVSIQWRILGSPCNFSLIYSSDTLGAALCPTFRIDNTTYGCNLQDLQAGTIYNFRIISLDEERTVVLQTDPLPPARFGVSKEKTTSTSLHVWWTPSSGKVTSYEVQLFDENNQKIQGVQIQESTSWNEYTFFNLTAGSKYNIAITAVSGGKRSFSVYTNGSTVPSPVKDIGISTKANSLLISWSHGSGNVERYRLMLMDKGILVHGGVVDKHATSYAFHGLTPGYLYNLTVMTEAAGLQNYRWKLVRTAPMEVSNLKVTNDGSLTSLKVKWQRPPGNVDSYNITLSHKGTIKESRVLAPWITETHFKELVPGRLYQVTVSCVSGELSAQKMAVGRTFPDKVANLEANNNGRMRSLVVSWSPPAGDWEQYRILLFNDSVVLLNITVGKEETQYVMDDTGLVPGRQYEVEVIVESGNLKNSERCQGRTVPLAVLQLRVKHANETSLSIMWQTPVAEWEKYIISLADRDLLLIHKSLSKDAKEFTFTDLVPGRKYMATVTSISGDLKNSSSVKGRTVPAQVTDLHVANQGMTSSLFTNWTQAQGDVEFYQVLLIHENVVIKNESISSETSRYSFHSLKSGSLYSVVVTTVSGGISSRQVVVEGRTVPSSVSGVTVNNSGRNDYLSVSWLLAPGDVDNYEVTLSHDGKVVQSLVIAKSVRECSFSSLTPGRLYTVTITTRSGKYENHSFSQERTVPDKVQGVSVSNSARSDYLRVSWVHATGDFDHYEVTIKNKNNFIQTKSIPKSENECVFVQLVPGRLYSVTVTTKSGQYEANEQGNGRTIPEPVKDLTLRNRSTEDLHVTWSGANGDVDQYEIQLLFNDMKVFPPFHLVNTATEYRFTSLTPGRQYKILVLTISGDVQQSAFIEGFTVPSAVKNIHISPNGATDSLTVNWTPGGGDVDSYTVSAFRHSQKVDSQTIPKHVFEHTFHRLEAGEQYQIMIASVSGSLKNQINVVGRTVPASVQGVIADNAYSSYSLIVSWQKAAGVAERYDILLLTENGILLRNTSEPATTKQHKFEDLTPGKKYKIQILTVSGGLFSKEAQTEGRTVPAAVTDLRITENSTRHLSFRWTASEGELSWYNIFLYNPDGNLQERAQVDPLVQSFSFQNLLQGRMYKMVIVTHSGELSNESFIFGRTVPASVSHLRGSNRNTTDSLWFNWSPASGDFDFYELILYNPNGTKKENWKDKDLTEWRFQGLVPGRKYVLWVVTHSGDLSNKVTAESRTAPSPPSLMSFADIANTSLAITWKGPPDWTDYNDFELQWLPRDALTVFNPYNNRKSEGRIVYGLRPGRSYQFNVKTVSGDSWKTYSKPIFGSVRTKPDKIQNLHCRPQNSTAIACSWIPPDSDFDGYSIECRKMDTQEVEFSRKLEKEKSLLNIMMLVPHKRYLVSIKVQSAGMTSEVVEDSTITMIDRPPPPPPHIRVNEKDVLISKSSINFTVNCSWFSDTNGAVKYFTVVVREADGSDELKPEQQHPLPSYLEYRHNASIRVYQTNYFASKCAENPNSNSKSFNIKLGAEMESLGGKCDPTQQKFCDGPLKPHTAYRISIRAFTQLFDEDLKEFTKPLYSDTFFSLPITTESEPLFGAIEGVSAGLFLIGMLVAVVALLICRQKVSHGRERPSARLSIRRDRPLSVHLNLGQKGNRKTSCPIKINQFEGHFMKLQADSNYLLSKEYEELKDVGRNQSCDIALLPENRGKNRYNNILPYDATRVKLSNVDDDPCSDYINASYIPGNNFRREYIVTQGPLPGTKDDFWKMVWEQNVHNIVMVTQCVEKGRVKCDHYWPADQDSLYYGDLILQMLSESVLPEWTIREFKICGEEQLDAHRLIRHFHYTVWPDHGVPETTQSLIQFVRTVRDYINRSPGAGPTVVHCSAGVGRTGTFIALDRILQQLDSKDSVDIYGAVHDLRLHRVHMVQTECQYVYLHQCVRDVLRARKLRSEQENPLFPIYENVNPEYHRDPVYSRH
- Test Name: NVS_ENZ_hPTPRB: NovaScreen (NVS) Enzymatic Assay for human Protein Tyrosine Phosphatase Receptor Type B (PTPRB) (AID 2283211)
Records with an inconclusive call do not appear. Calls of active or inactive are those of the source. Rule for the calls: active = hit-call score of the fitted dose curve at least 0.9, where 1 is the maximum; inconclusive = response in the unintended direction; inactive = score below 0.9.
Entry note: the call must match one of yes for active, no for inactive

| Compound Structure | Cat |
| --- | --- |
| CC(C)(c1ccc(O)cc1)c1ccc(O)cc1 | no |

Prompt line: What is the recorded call for this compound in the test? CCCN(CCC)C(=O)SCC
Response line: no

Prompt line: What is the recorded call for this compound in the test? COC(=O)c1ccccc1S(=O)(=O)NC(=O)Nc1nc(OC(F)F)cc(OC(F)F)n1
Response line: no

Prompt line: What is the recorded call for this compound in the test? S=C([S-])NCCNC(=S)[S-].[Mn+2]
Response line: yes
